Cited source for all entries: ChEMBL document CHEMBL1153906

- Method Summary: Selectivity ratio of Ki for human carbonic anhydrase 2 to Ki for Caenorhabditis elegans carbonic anhydrase 4b
Observable: Ratio Ki
Would you mind answering with just the numeric figure?

Record NNC(=O)c1[nH]c2ccc(S(N)(=O)=O)cc2c1-c1ccccc1Br , field Ratio Ki: 0.18

For NNC(=O)c1[nH]c2ccc(S(N)(=O)=O)cc2c1-c1ccccc1Cl the compound record lists Ratio Ki as 0.1

// Ratio Ki lookup, compound = COc1cccc(-c2c(C(=O)NN)[nH]c3ccc(S(N)(=O)=O)cc23)c1 , result: 0.02

Notebook: NNC(=O)c1[nH]c2ccc(S(N)(=O)=O)cc2c1-c1ccccc1F , Ratio Ki read as 2.88
